Measured values drawn from the supplement of paper PMC9233669 for this set.

Test system: biotinyl-Val-oxazolone
Assay: self-aminoacylation, catalytic enhancement (BVO) (fold over background); higher = more active; k-Seq, kA / k0A0; sequences stand for … in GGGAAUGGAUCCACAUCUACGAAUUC…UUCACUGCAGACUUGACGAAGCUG
Variants at the floor of the assay were thinned out.
If the reported self-aminoacylation equals or exceeds 2, assign class 1. If not, assign class 0.

See these solved cases before continuing.
Please indicate if the recorded self-aminoacylation for CCAGACUUCAAGCAAUCGGCC [Fam1B.1 aminoacylation ribozyme variant] meets or exceeds 2. class 1

Form field: self-aminoacylation at least 2? Entry: AAGUUUGCUAAUAGUCGUGAG [Fam3.1 aminoacylation ribozyme variant] class 0

Please indicate if the recorded self-aminoacylation for AAAUUUGUUAAUAGUCGCAAG [Fam3.1 aminoacylation ribozyme variant] meets or exceeds 2. class 0

Others:
Is the recorded value of self-aminoacylation equal to or greater than 2 for this sequence? AUUACCCUGUACAUCGAGUGA [Fam2.1 aminoacylation ribozyme variant] class 1

Please indicate if the recorded self-aminoacylation for AUUCUCCUAGGUCAUCAGGUG [Fam2.2 aminoacylation ribozyme variant] meets or exceeds 2. class 1

* * *

System: biotinyl-Phe-oxazolone
Assay: self-aminoacylation, catalytic enhancement (BFO) (fold over background); higher = more active; k-Seq, kA / k0A0; sequences stand for … in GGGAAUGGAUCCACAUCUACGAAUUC…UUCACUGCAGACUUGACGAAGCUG
This sample holds only a part of the variants without activity.
ENDPOINT NAME: self-aminoacylation
Output: the number by itself.

The sequence listed as AUUCCCCCAGGUCAUCGGGUG [Fam2.2 aminoacylation ribozyme variant] has a reported self-aminoacylation of 174

Kindly note the recorded self-aminoacylation for AUUUACCUAGGGCAUCGGGUG [Fam2.2 aminoacylation ribozyme variant] , which is 16.7

Documented self-aminoacylation of CGACACUUCGAGCAAUCGGUC [Fam1B.1 aminoacylation ribozyme variant] : 1.37

Please turn your attention to the following entry.
Form: sequence = CUACUUCAAACAAACGGCCUG [Fam1A.1 aminoacylation ribozyme variant] ; self-aminoacylation = 0.719

* * *

Tested on: biotinyl-Met-oxazolone
Experiment: self-aminoacylation, catalytic enhancement (BMO) (fold over background); higher = more active; k-Seq, kA / k0A0; sequences stand for … in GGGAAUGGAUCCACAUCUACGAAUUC…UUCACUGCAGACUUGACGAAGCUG
Fewer inactive variants are shown than the library holds.
Record Met whenever self-aminoacylation is at 6 or higher; record Not met when lower.

Example results:
Check the entry AAGUUUCCUAAUAGACGCAAG [Fam3.1 aminoacylation ribozyme variant] : does self-aminoacylation equal or exceed 6? Not met

Identify whether the reported self-aminoacylation of the following sequence is 6 or greater: AUUCCCCUGGUCAUCGAGCGA [Fam2.1 aminoacylation ribozyme variant] Not met

Decide: self-aminoacylation of AUUCAACUAGGUCAUCGCGUG [Fam2.2 aminoacylation ribozyme variant] >= 6? Met

Tell me whether self-aminoacylation is at least 6 here: AUUCACUUAGGUCAUGGGGUG [Fam2.2 aminoacylation ribozyme variant] Not met

Can CCACACUUCAAGCGAUCAGUC [Fam1B.1 aminoacylation ribozyme variant] be said to have self-aminoacylation at or above 6? Not met

Check if self-aminoacylation >= 6 (inclusive). Item: CCACACUUCAAACAAUCGGUC [Fam1B.1 aminoacylation ribozyme variant] Not met

Item CCAGACUUCAAGCAAUCGGUG [Fam1B.1 aminoacylation ribozyme variant] with self-aminoacylation of 6 or above? Met

Identify whether the reported self-aminoacylation of the following sequence is 6 or greater: UUUACCCUGAUCAUCGAGUGA [Fam2.1 aminoacylation ribozyme variant] Met

Further cases:
Could you tell me if the measured self-aminoacylation of CUUAACCUGGUCAUCGAGUGA [Fam2.1 aminoacylation ribozyme variant] reaches 6 or more? Not met

Is reported self-aminoacylation greater than or equal to 6 here: AUUCACCUAGCUUAUCGGGUG [Fam2.2 aminoacylation ribozyme variant] Not met

Has CGACUUCAAACAGUCGGUCUG [Fam1A.1 aminoacylation ribozyme variant] a recorded self-aminoacylation greater than or equal to 6? Not met

Form field: self-aminoacylation at least 6? Entry: AUUACCGUGGUCAUCGCGUGA [Fam2.1 aminoacylation ribozyme variant] Met

Confirm if self-aminoacylation reported for the sequence CCCCACCUCAAGCAAUCGGUC [Fam1B.1 aminoacylation ribozyme variant] is 6 or above. Not met

Could you verify whether the entry CCACACCUCAAGCCAUCGGUC [Fam1B.1 aminoacylation ribozyme variant] shows self-aminoacylation of no less than 6? Not met

Check this sequence for self-aminoacylation at or above 6: CCACACUUCAAGCAAACAGUC [Fam1B.1 aminoacylation ribozyme variant] Not met

Threshold query (self-aminoacylation >= 6) on AAGUUUGAUAAUAGCCGCAAG [Fam3.1 aminoacylation ribozyme variant] Not met

Dear colleague, could you confirm whether AAGUUUCCUAAGAGUCGCAAG [Fam3.1 aminoacylation ribozyme variant] has self-aminoacylation at or above 6? Not met

Is reported self-aminoacylation greater than or equal to 6 here: AUUCUCCUAGGUCCUCGGGUG [Fam2.2 aminoacylation ribozyme variant] Met

* * *

System: biotinyl-Ile-oxazolone
Experiment: self-aminoacylation, catalytic enhancement (BIO) (fold over background); higher = more active; k-Seq, kA / k0A0; sequences stand for … in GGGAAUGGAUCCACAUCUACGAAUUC…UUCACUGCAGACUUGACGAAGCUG
Variants at the floor of the assay were thinned out.
ENDPOINT NAME: self-aminoacylation
The answer should be a number; do not append a unit.

The cases that follow already have their self-aminoacylation on record.
The sequence AAGUUUGCGAAUAGUCGCAGG [Fam3.1 aminoacylation ribozyme variant] on biotinyl-Ile-oxazolone: self-aminoacylation was 1.7

Item AUUCACCUAUGUCAUCGGGCG [Fam2.2 aminoacylation ribozyme variant] ; assay system biotinyl-Ile-oxazolone; self-aminoacylation reported as 2.22

With biotinyl-Ile-oxazolone as the test system, AUCACCCUGGCCAUCGAGUGA [Fam2.1 aminoacylation ribozyme variant] showed self-aminoacylation of 3.91

Measured self-aminoacylation (biotinyl-Ile-oxazolone), entry AAGUUUGCUAAUAGUAGCACG [Fam3.1 aminoacylation ribozyme variant] : 0.814

Measured self-aminoacylation (biotinyl-Ile-oxazolone), entry AUUACCCUGGUAAUCGGGUGA [Fam2.1 aminoacylation ribozyme variant] : 4.26

Could you now look at the following sequence, please?
The recorded self-aminoacylation with biotinyl-Ile-oxazolone for CUACUUCAGACAAGCGGUCUG [Fam1A.1 aminoacylation ribozyme variant] was 0.839

* * *

System: biotinyl-Met-oxazolone
Assay: self-aminoacylation, catalytic enhancement (BMO) (fold over background); higher = more active; k-Seq, kA / k0A0; sequences stand for … in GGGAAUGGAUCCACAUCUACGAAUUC…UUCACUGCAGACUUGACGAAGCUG
Fewer inactive variants are shown than the library holds.
ENDPOINT NAME: self-aminoacylation
Reply briefly: the number, and no unit.

For this sequence ( CAGUUUGCUAAUAGUCGCCAG [Fam3.1 aminoacylation ribozyme variant] ), measured self-aminoacylation is 1.91

self-aminoacylation for CAACACUUGAAGCAAUCGGUC [Fam1B.1 aminoacylation ribozyme variant] is 0.731

self-aminoacylation reported for this sequence AUCACCCUGGUCAUCGCGUGA [Fam2.1 aminoacylation ribozyme variant] : 33.9

For reference, reported self-aminoacylation for AAGUUUGCUUAUGGUCGCAAG [Fam3.1 aminoacylation ribozyme variant] stands at 0.728

Measured self-aminoacylation of AUUACCCUGUUCAUUGAGUGA [Fam2.1 aminoacylation ribozyme variant] : 13.8

Per the record, CCACACUGCAGGCAAUCGGUC [Fam1B.1 aminoacylation ribozyme variant] has self-aminoacylation of 1.76

Entry CGACUUCUAACAAUCGGUCUG [Fam1A.1 aminoacylation ribozyme variant] — recorded self-aminoacylation = 0.936

So for CUACUUCAUACAAUCGUUCUG [Fam1A.1 aminoacylation ribozyme variant] , the logged self-aminoacylation turned out to be 0.476

* * *

Test system: biotinyl-Ile-oxazolone
Test: self-aminoacylation, catalytic enhancement (BIO) (fold over background); higher = more active; k-Seq, kA / k0A0; sequences stand for … in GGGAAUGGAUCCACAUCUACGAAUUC…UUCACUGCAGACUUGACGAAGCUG
This sample holds only a part of the variants without activity.
In this section, each of the sequences is paired with its reported self-aminoacylation.
Enter a number only.

Please review the following examples before continuing.
Briefly, self-aminoacylation measured for CCACCCUUCAAGCAAUCGGUC [Fam1B.1 aminoacylation ribozyme variant] : 1.05

Sure, the documented self-aminoacylation for CCACUUCAAACAAUCGGCCUG [Fam1A.1 aminoacylation ribozyme variant] is 4.3

Looking up AUUACCCUGGUCAUCGACUGU [Fam2.1 aminoacylation ribozyme variant] , I see its self-aminoacylation listed as 0.846

More entries:
In plain terms, CUACUUCACACAAUUGGUCUG [Fam1A.1 aminoacylation ribozyme variant] has a documented self-aminoacylation of 0.948
